Field: pIC50. Provide a value for each of the compounds that follow.
- MEASURED_ON: human Syk protein (Homo sapiens (Human), UniProt P43405)
- METHOD_NOTES: Syk kinase inhibition test
- Format: biochemical
- SETUP_CONDITIONS: Table 95; read-out: SYK inhibitory activity IC50
Note on units: pIC50 is unitless, being -log10 of a concentration expressed in mol/L.

# return recorded pIC50 for input NC(=O)c1nnc(N[C@@H]2CCCC[C@@H]2N)nc1Nc1cccc2c1ccn2[C@H]1CC[C@H](O)CC1 9.43

# return recorded pIC50 for input NC(=O)c1ccc(NC2CCCCC2N)cc1Nc1cccc2c1OCO2 (centres unmarked) [B, reference compound] 8.17

# return recorded pIC50 for input NC(=O)c1nnc(N[C@@H]2CCCC[C@@H]2N)nc1Nc1cccc2c1ccn2C1COC1 9.38

# return recorded pIC50 for input CC[C@H](N)CNc1nnc(C(N)=O)c(Nc2cccc3sccc23)n1 9.46

# return recorded pIC50 for input NC(=O)c1nnc(N[C@@H]2CCCC[C@@H]2N)nc1Nc1cc(-c2ncccn2)cs1 9.26

# return recorded pIC50 for input NC(=O)c1nnc(N[C@@H]2CCCC[C@@H]2N)nc1Nc1cccc2c1ccn2CCF 9.29

# return recorded pIC50 for input Cc1cc(Nc2nc(N[C@@H]3CCCC[C@@H]3N)nnc2C(N)=O)cc2cn(C(F)F)nc12 9.43

# return recorded pIC50 for input Cn1ccc(-n2ccc3c(Nc4nc(N[C@@H]5CCCC[C@@H]5N)nnc4C(N)=O)cccc32)n1 9.44
